Biological target: T1, hRAGE-Fc (human, UniProt Q15109 23-342, biotin label in the selections and HTRF assays)
T1 construct: extracellular domain; also called biotin labeled hRAGE-Fc; Biotin-labeled RAGE-Fc; not shown: Fc part
T1 sequence (Q15109 23-342): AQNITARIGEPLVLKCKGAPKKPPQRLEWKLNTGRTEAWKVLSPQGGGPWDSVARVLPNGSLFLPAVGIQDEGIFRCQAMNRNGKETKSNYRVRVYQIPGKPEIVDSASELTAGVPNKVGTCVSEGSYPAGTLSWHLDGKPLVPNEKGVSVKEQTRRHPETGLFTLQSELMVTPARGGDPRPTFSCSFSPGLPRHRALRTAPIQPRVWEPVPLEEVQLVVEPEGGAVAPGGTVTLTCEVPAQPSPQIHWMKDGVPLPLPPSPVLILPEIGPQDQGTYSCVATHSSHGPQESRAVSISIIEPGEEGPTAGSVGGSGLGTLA
Assay: HTRF competition, scFv vs labelled parental XT-M4 (competitor) on biotin hRAGE-Fc
Reported pIC50 values follow for various binders
For clarity, pIC50 is expressed as the negative log10 of concentration in mol/L.

6G4 scFv (scFv) scFv: DIQMTQSPSSLSASVGDRVTITCRASQDVGIYVNWFQQKPGKAPRRLIYRATNLADGVPSRFSGSRSGTDFTLTISSLQPEDFATYYCLEFDEHPLTFGGGTKVEIKDGGGSGGGGSGGGGSSEVQLVESGGGLVQPGGSLRLSCAASGFTFNNYWMTWVRQAPGKGLEWVASIDNSGDNTYYPDSVKDRFTISRDNAKNSLYLQMNSLRAEDTAVYYCARGGDILDSLHFWGQGTLVTVSS :: 8.69

Proceeding to the next binder to report its pIC50.
// query Look up and state reported pIC50 for 3B2 scFv (scFv) scFv: DIQMTQSPSSLSASVGDRVTITCRASQDVGIYVNWFQQKPGKAPRRLIYRATNLADGVPSRFSGSRSGTDFTLTISSLQPEDFATYYCLEFDEHPLTFGGGTKVEIKDGGGSGGGGSGGGGSSEVQLVESGGGLVQPGGSLRLSCAASGFTFNNYWMTWVRQAPGKGLEWVASIDNSGDNTYYPDSVKDRFTISRDNAKNSLYLQMNSLRAEDTAVYYCARGGDILVGLDYWGQGTLVTVSS
// result 9.04
